The values you see were collected from patent US20250075002A1.

Biological target: Human MUC1 (full length), on cells (human, UniProt P15941 24-1255)
Sequence (P15941 24-1255 limits assumed): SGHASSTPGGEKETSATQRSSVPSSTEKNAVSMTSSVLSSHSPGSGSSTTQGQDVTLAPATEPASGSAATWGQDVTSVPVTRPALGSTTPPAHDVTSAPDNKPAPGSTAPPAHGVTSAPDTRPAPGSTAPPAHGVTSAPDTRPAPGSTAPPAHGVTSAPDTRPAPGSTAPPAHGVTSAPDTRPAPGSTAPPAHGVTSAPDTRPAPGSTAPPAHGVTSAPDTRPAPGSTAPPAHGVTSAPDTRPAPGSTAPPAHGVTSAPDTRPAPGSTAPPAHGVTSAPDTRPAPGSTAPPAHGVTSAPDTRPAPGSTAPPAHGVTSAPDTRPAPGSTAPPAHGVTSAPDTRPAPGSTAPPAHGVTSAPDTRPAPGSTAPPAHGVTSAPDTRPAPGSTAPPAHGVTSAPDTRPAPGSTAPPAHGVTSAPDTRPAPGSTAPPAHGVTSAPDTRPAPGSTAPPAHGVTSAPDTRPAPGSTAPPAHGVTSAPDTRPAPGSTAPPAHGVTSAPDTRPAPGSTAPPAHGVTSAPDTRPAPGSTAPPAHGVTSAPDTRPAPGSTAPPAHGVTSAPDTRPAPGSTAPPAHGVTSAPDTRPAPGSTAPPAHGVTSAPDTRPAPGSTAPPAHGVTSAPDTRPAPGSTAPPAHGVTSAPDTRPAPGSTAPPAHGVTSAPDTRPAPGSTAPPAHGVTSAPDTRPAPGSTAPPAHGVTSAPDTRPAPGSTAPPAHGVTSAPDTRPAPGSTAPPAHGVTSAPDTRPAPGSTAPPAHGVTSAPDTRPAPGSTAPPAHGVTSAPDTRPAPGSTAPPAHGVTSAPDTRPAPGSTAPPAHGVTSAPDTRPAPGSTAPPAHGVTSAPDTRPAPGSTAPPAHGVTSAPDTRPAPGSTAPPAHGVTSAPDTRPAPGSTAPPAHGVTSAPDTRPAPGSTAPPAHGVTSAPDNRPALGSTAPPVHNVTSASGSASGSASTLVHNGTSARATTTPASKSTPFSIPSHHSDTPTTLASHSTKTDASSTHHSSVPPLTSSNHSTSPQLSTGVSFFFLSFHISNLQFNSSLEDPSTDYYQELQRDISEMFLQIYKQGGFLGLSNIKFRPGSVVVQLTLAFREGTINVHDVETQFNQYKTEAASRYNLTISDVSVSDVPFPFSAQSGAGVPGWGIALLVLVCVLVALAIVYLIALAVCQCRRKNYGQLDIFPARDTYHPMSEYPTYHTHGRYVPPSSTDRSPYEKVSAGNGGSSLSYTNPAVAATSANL
Experiment: cell-based or functional assay
Attribute Measured: Cell lysis activity Emax, T-47D/nanoluc in human whole blood (%)
// return numeric value only (unit: %, not printed)

Sample answers from the record:
Binder | Assay Value
HuVH-HMFG1-AF (antibody, IgG1, V domains shown, afucosylated Fc glycan (-AF)) VH: QVQLVQSGAEVKKPGASVKVSCKASGYTFSAYWIEWVRQAPGKGLEWVGEILPGSNNSRYNEKFKGRVTVTRDTSTNTAYMELSSLRSEDTAVYYCARSYDFAWFAYWGQGTLVTVSS VL: DIQMTQSPSSLSASVGDRVTITCKSSQSLLYSSNQKIYLAWYQQKPGKAPKLLIYWASTRESGVPSRFSGSGSGTDFTFTISSLQPEDIATYYCQQYYRYPRTFGQGTKVEIK | 3.59
Gatipotuzumab-AF (antibody, IgG1, V domains shown, afucosylated Fc glycan (-AF)) VH: EVQLVESGGGLVQPGGSMRLSCVASGFPFSNYWMNWVRQAPGKGLEWVGEIRLKSNNYTTHYAESVKGRFTISRDDSKNSLYLQMNSLKTEDTAVYYCTRHYYFDYWGQGTLVTVSS VL: DIVMTQSPLSNPVTPGEPASISCRSSKSLLHSNGITYFFWYLQKPGQSPQLLIYQMSNLASGVPDRFSGSGSGTDFTLRISRVEAEDVGVYYCAQNLELPPTFGQGTKVEIK | 10.2

Turning now to a further binder:
(Q) Answer with the recorded Cell lysis activity Emax, T-47D/nanoluc in human whole blood of MUC1 3D1-hFc-AF (antibody, IgG1, V domains shown, afucosylated Fc glycan (-AF)) VH: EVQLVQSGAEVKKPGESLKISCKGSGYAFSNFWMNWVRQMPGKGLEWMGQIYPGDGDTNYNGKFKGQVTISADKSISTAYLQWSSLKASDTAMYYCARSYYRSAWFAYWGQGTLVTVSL VL: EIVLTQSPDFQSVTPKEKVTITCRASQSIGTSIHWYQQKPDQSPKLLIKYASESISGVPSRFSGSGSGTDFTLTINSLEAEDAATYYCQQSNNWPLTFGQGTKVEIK only.
(A) 10.6
